src = ChEMBL document CHEMBL2016570

Kindly state pIC50 for each of the entries shown.
Tested on: B16-F10
assay-comment: Antiproliferative activity against mouse B16F10 cells after 48 hrs by MTT assay
Type: functional, cell-based
reported-conditions: B16-F10, 48 h
The quantity pIC50 is defined as the negative base-10 logarithm of the molar concentration.

Data request: Param readout = pIC50; param system = B16-F10; param query = O=C(Cc1ccccc1)Nc1nnc(-c2ccc(Br)cc2)s1 ; response: value
Data returned: 5.04

Data request: Param readout = pIC50; param system = B16-F10; param query = Cc1ccc(C(=O)Nc2nnc(-c3ccccc3)s2)cc1 ; response: value
Data returned: 5.56

Data request: Param readout = pIC50; param system = B16-F10; param query = COc1ccc(C(=O)Nc2nnc(-c3ccccc3)s2)cc1 ; response: value
Data returned: 5.76

Data request: Param readout = pIC50; param system = B16-F10; param query = COc1ccc(-c2nnc(NC(=O)c3cccnc3)s2)cc1 ; response: value
Data returned: 5.63

Data request: Param readout = pIC50; param system = B16-F10; param query = O=C(Nc1nnc(-c2ccccc2)s1)c1cc(Br)ccc1O ; response: value
Data returned: 5.89

Data request: Param readout = pIC50; param system = B16-F10; param query = Cc1ccc(-c2nnc(NC(=O)c3ccccc3O)s2)cc1 ; response: value
Data returned: 5.71

Data request: Param readout = pIC50; param system = B16-F10; param query = O=C(Nc1nnc(-c2ccccc2)s1)c1ccc(F)cc1 ; response: value
Data returned: 5.36

Data request: Param readout = pIC50; param system = B16-F10; param query = O=C(Nc1nnc(-c2ccccc2)s1)c1ccccc1O ; response: value
Data returned: 5.69

Data request: Param readout = pIC50; param system = B16-F10; param query = O=C(Nc1nnc(-c2ccccc2)s1)c1cccnc1 ; response: value
Data returned: 5.21

Data request: Param readout = pIC50; param system = B16-F10; param query = O=C(Nc1nnc(-c2ccc(Cl)cc2)s1)c1cc(Cl)ccc1O ; response: value
Data returned: 6.51

Data request: Param readout = pIC50; param system = B16-F10; param query = COc1ccc(-c2nnc(NC(=O)c3ccccc3)s2)cc1 ; response: value
Data returned: 5.80

Data request: Param readout = pIC50; param system = B16-F10; param query = O=C(Nc1nnc(-c2ccccc2)s1)c1ccccc1 ; response: value
Data returned: 5.29

Data request: Param readout = pIC50; param system = B16-F10; param query = Cc1ccc(-c2nnc(NC(=O)c3ccccc3)s2)cc1 ; response: value
Data returned: 5.45

Data request: Param readout = pIC50; param system = B16-F10; param query = O=C(Nc1nnc(-c2ccc(Cl)cc2)s1)c1cc(Br)ccc1O ; response: value
Data returned: 6.25

Data request: Param readout = pIC50; param system = B16-F10; param query = O=C(Nc1nnc(-c2ccc(Cl)cc2)s1)c1ccccc1O ; response: value
Data returned: 5.94

Data request: Param readout = pIC50; param system = B16-F10; param query = O=C(Cc1ccccc1)Nc1nnc(-c2ccc(Cl)cc2)s1 ; response: value
Data returned: 5.08

Data request: Param readout = pIC50; param system = B16-F10; param query = Cc1ccc(-c2nnc(NC(=O)c3cccnc3)s2)cc1 ; response: value
Data returned: 5.41

Data request: Param readout = pIC50; param system = B16-F10; param query = COc1ccc(-c2nnc(NC(=O)c3ccccc3O)s2)cc1 ; response: value
Data returned: 5.86

Data request: Param readout = pIC50; param system = B16-F10; param query = O=C(Nc1nnc(-c2ccccc2)s1)c1cc(Cl)ccc1O ; response: value
Data returned: 5.94

Data request: Param readout = pIC50; param system = B16-F10; param query = O=C(Nc1nnc(-c2ccc(Cl)cc2)s1)c1ccccc1 ; response: value
Data returned: 5.39

Data request: Param readout = pIC50; param system = B16-F10; param query = O=C(Nc1nnc(-c2ccc(F)cc2)s1)c1ccccc1 ; response: value
Data returned: 5.32

Data request: Param readout = pIC50; param system = B16-F10; param query = O=C(Nc1nnc(-c2ccc(F)cc2)s1)c1cc(Br)ccc1O ; response: value
Data returned: 5.99

Data request: Param readout = pIC50; param system = B16-F10; param query = O=C(Nc1nnc(-c2ccc(F)cc2)s1)c1ccccc1O ; response: value
Data returned: 5.94

Data request: Param readout = pIC50; param system = B16-F10; param query = O=C(Nc1nnc(-c2ccccc2)s1)c1ccc(Cl)cc1 ; response: value
Data returned: 5.33

Data request: Param readout = pIC50; param system = B16-F10; param query = O=C(Nc1nnc(-c2ccc(F)cc2)s1)c1cc(Cl)ccc1O ; response: value
Data returned: 6.17
